Hey, just so you know, these numbers are from patent US10556907B2.

System under test: UniProt:Q99500
Sequence (Q99500 whole entry): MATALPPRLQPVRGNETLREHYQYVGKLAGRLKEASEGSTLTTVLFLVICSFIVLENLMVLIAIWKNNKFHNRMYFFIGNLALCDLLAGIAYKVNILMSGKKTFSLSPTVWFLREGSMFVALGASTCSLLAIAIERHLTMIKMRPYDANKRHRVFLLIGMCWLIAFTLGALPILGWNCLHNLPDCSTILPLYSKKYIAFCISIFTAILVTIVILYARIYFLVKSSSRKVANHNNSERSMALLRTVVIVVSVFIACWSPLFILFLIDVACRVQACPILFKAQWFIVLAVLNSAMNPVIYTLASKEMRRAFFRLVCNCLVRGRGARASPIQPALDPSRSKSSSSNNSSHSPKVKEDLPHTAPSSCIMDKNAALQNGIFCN
Assay notes: Method 1: intracellular Ca2+ release (FLIPR, Calcium 5) in recombinant CHO-K1 cells
Experimental conditions: (1): determined with method 1; read-out: S1P3 EC50
pEC50: −log10 of the molar value.
Here the recorded pEC50 is given for each entry.

Consider the worked cases shown below.
# Compound, System under test, Readout label, Observed result
data = [
    ("CC(C)c1ccc(C#Cc2ncc3c(n2)CCN(C2CC(C(=O)O)C2)C3)cc1 (centres unmarked) [Compound 58]", "UniProt:Q99500", "pEC50", "< 6.00"),
    ("O=C(O)CCN1CCc2cc(-c3ccc(OCc4cccc(Cl)c4)cc3)ncc2C1 [Compound 175]", "UniProt:Q99500", "pEC50", "< 6.00"),
    ("O=C(O)CCN1CCc2nc(-c3ccc(OCc4ccc(C(F)(F)F)cc4)cc3)ncc2C1 [Compound 81]", "UniProt:Q99500", "pEC50", "< 6.00"),
    ("Cc1ccc(C(F)(F)F)cc1COc1ccc(-c2ccc3c(n2)CCN(CCC(=O)O)C3)cc1 [Compound 158]", "UniProt:Q99500", "pEC50", "< 6.00"),
    ("O=C(O)CCN1CCc2nc(-c3ccc(OCc4cccc(OC(F)F)c4)cc3)ccc2C1 [Compound 164]", "UniProt:Q99500", "pEC50", "< 6.00"),
    ("O=C(O)CCN1CCc2nc(-c3ccc(OCc4cccc(Cl)c4)cc3)ncc2C1 [Compound 72]", "UniProt:Q99500", "pEC50", "< 6.00"),
    ("Cc1cc(-c2ccc3c(n2)CCN(C2CC(C(=O)O)C2)C3)ccc1OCc1ccccc1 (centres unmarked) [Compound 117]", "UniProt:Q99500", "pEC50", "< 6.00"),
    ("CC(CC(=O)O)CN1CCc2nc(-c3ccc(OCc4ccccc4F)cc3)ncc2C1 (centres unmarked) [Compound 235]", "UniProt:Q99500", "pEC50", "< 6.00"),
    ("O=C(O)CCCN1CCc2nc(-c3ccc(OCc4cccc(Cl)c4)cc3)ncc2C1 [Compound 38]", "UniProt:Q99500", "pEC50", "< 6.00"),
    ("O=C(O)C1CC(N2CCc3nc(C#Cc4ccc(Cl)cc4)ccc3C2)C1 (centres unmarked) [Compound 120]", "UniProt:Q99500", "pEC50", "< 6.00"),
]

stdin: For the compound CC(CC(=O)O)CN1CCc2nc(-c3ccc(OCc4ccc(Cl)cc4)cc3)ncc2C1 (racemic) [Compound 23] , what pEC50 is on record?
stdout: < 6.00

stdin: Give the measured pEC50 of CC(CC(=O)O)CN1CCc2nc(-c3ccc(OCc4ccc(Cl)cc4)cc3)ncc2C1 (centres unmarked) [Compound 259] .
stdout: < 6.00

stdin: Need pEC50, item Cc1ccccc1C#Cc1ncc2c(n1)CCN(C1CC(C(=O)O)C1)C2 (centres unmarked) [Compound 55]
stdout: < 6.00
